molecular target: KOR (Homo sapiens); experiment: Opioid secondary binding, KOR (Tables 4, 5, 8, 9); details: Opioid secondary binding activity for Formula 10 analogs; read-out: KOR, Ki
Sequence (P41145 whole entry): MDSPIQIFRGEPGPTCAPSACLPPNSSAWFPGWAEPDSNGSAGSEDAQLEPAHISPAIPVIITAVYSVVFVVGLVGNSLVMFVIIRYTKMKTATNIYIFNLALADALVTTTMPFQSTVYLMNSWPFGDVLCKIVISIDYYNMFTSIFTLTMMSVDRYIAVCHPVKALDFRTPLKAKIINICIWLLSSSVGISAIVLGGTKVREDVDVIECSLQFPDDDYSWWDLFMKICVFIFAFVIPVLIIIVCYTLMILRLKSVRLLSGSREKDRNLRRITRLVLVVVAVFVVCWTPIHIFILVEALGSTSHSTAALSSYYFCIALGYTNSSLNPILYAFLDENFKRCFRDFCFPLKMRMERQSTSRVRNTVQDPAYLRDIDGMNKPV
# strict inequality: Ki < 3000 nM yields Condition met, everything else yields Condition not met

> print(dat)
                                   molecule  category.label
1  O=C(Nc1ccc(Br)c(C(F)(F)F)c1)[C@@H]1CC=C[C@@H]2CCN(CCc3ccccc3)C(=O)[C@@H]21 (racemic) [compound 11875]   Condition met

Exam item: Ki strictly < 3000 nM for this molecule? O=C(Nc1ccc(F)c(F)c1)C1CC=CC2CCN(Cc3ccc(Cl)cc3)C(=O)C21 (racemic) [compound 10839]
Marked response: Condition met

Exam item: State whether 3000 nM exceeds Ki recorded for O=C(Nc1ccc(Br)c(C(F)(F)F)c1)[C@@H]1CC=C[C@@H]2CCN(C3CCCCC3)C(=O)[C@@H]21 (racemic) [compound 11857] .
Marked response: Condition met

====

target: DOR (Homo sapiens, UniProt P41143); experiment: Opioid secondary binding, DOR (Table 4); details: Opioid secondary binding activity for Formula 10 analogs
Sequence (P41143 whole entry): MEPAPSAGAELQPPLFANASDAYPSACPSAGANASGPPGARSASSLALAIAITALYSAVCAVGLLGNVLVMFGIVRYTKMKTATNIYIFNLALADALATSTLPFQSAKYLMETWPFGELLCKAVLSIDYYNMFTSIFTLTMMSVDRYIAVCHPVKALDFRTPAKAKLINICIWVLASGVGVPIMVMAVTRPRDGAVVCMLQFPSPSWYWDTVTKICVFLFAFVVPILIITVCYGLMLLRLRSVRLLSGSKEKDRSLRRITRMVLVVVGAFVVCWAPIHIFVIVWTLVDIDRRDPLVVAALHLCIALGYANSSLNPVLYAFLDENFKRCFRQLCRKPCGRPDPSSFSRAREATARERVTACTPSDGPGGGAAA
Overview of recorded Ki for various molecules
Please format your answer as a value with the unit trailing.

Please review the following examples before continuing.
> print(dat)
                                   molecule                 experimental.system  measured.parameter   result
1  O=C(Nc1ccccc1)[C@@H]1CC=C[C@@H]2CCN(Cc3ccc(Cl)c(Cl)c3)C(=O)[C@@H]21 (racemic)  DOR (Homo sapiens, UniProt P41143)                  Ki  1110 nM
2  CCOC(=O)C1CCCCN1C(=O)[C@@H]1CC=C[C@@H]2CCN(CC3CCCCC3)C(=O)[C@@H]21 (mixture of isomers)  DOR (Homo sapiens, UniProt P41143)                  Ki  9160 nM

Continue with the molecule presented below.
Given item O=C(Nc1ccc(F)c(C(F)(F)F)c1)[C@@H]1CC=C[C@@H]2CCN(Cc3ccccc3)C(=O)[C@@H]21 (racemic) , the value recorded as its Ki is 192 nM

====

biological target: DOR (Homo sapiens, UniProt P41143); assay: Opioid secondary binding, DOR (Table 4); conditions: Opioid secondary binding activity for Formula 10 analogs
measured_parameter: Ki

> print(dat)
                                   compound    result
1  Cc1ccc(NC(=O)[C@@H]2CC=C[C@@H]3CCN(Cc4ccccc4)C(=O)[C@@H]32)cc1C(F)(F)F (racemic) [compound 13475]  0.039 µM
2  CC(c1ccccc1)N1CCC2C=CCC(C(=O)Nc3ccc(F)c(F)c3)C2C1=O (mixture of isomers) [compound 12166]    3.2 µM
3  O=C(NCc1ccc(Cl)c(Cl)c1)[C@@H]1CC=C[C@@H]2CCN(Cc3ccccc3)C(=O)[C@@H]21 (racemic) [compound 12148]  0.644 µM

The compound O=C(Nc1ccccc1)[C@@H]1CC=C[C@@H]2CCN(Cc3ccccc3)C(=O)[C@@H]21 (racemic) [compound 12125] , tested on DOR (Homo sapiens, UniProt P41143), showed Ki of > 10 µM

Summary: O=C(Nc1ccccc1)[C@@H]1CC=C[C@@H]2CCN(Cc3ccccc3)C(=O)[C@@H]21 (racemic) [compound 8937] , DOR (Homo sapiens, UniProt P41143), Ki = 0.85 µM

Assay DOR (Homo sapiens, UniProt P41143), sample CCOC(=O)c1ccc(NC(=O)[C@@H]2CC=C[C@@H]3CCN(Cc4ccccc4)C(=O)[C@@H]32)cc1 (racemic) [compound 12124] , Ki read: 7.82 µM

GET /values?item= Cc1ccc(NC(=O)[C@@H]2CC=C[C@@H]3CCN(Cc4ccccc4F)C(=O)[C@@H]32)cc1C(F)(F)F (racemic) [compound 13479] &system= DOR (Homo sapiens, UniProt P41143) returns Ki: 0.0095 µM

The compound Cc1cc(C)c(NC(=O)[C@@H]2CC=C[C@@H]3CCN(c4ccccc4)C(=O)[C@@H]32)c(C)c1 (racemic) [compound 11951] , tested on DOR (Homo sapiens, UniProt P41143), showed Ki of 4.3 µM

The observed Ki for O=C(Nc1cc(F)c(F)c(F)c1)[C@@H]1CC=C[C@@H]2CCN(c3ccccc3)C(=O)[C@@H]21 (racemic) [compound 12098] when tested with DOR (Homo sapiens, UniProt P41143) stands at 0.289 µM

Lab entry: DOR (Homo sapiens, UniProt P41143) assay, compound O=C(Nc1cc(F)c(F)c(F)c1)[C@@H]1CC=C[C@@H]2CCN(C3CCCCC3)C(=O)[C@@H]21 (racemic) [compound 12088] , Ki = 2.79 µM
